B1: CPEB3 Ribozyme (parent)
chain: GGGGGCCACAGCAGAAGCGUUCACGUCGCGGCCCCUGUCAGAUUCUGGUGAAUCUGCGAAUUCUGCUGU

Variants of: B1
Method summary: self-cleavage, relative activity (ratio to wild type); higher = more cleavage; co-transcriptional
Endpoint name: self-cleavage

The cases that follow already have their self-cleavage on record.
C7A A42C yielded self-cleavage of 0.322

C39U A59C yielded self-cleavage of 0.445

G14A G68A yielded self-cleavage of 0.866

C24G G25U yielded self-cleavage of 0.104

G14U G58U yielded self-cleavage of 0.893

Others:
C29U U46C yielded self-cleavage of 0.433

U64G U67G yielded self-cleavage of 0.769

G50U G58C yielded self-cleavage of 0.942

A15C G68A yielded self-cleavage of 0.966

A10U U36G yielded self-cleavage of 0.195

G14A A40U yielded self-cleavage of 0.21

A40C A52U yielded self-cleavage of 0.365

A10C G37A yielded self-cleavage of 0.242

A10U U36C yielded self-cleavage of 0.924

A8G U62G yielded self-cleavage of 0.367

U21A A42U yielded self-cleavage of 0.941

C6U C29A yielded self-cleavage of 0.493

C32G C66A yielded self-cleavage of 0.256

A59G G65A yielded self-cleavage of 0.895

G14C A52U yielded self-cleavage of 0.562

G5C G50U yielded self-cleavage of 0.243

G11C C12G yielded self-cleavage of 0.211
